Taken from ChEMBL document CHEMBL1137184.

- ASSAY OVERVIEW: Compound was evaluated for toxicity in necrosis using MT2 assay at 50 uM concentration at 24 hr
- MEASUREMENT CONTEXT: human
ASSAY METRIC: Cell death (%)
Value expressed in %; do not type the unit.

Enquiry: I have this compound here, COc1cc(C(O)[C@H]2C(=O)OCC2C2(c3ccc4ccccc4c3)SCCCS2)cc(OC)c1OC (some centres not stated) , and I need its recorded Cell death.
Return: 14.6

Enquiry: Which Cell death value belongs to "COc1cc([C@@H]2c3cccc4cccc(c34)C3(SCCCS3)[C@H](CO)[C@@H]2CO)cc(OC)c1OC" ?
Return: 6.7

Enquiry: Endpoint output: Cell death of "COc1cc([C@@H]2c3cccc4cccc(c34)C3(SCCCS3)[C@@H]3COC(=O)[C@@H]23)cc(OC)c1OC" . Value?
Return: 10.5

Enquiry: // returns reported Cell death for input "COc1cc([C@@H]2c3c(ccc4ccccc34)C(=O)[C@H]3COC(=O)[C@@H]23)cc(OC)c1OC"
Return: 4.5

Enquiry: Requested read-out: Cell death. Entry: O=C1CC(C2(c3cccc4ccccc34)SCCCS2)CO1 (configuration not stated)
Return: 3.5

Enquiry: Reported Cell death for "COc1cc2c(c(OC)c1OC)[C@]13C(=O)OC[C@H]1[C@@H](C)c1cccc4cccc(c14)[C@@H]23" : what is it?
Return: 11.3

Enquiry: Param item = CCn1c2ccccc2c2cc(C3(C4COC(=O)C4)SCCCS3)ccc21 (configuration not stated) ; retrieve measured Cell death.
Return: 4.2

Enquiry: # query: Cell death of entry CCn1c2ccccc2c2cc(C3(C4COC(=O)[C@@H]4C(O)c4cc(OC)c(OC)c(OC)c4)SCCCS3)ccc21 (some centres not stated)
Return: 4

---

- ASSAY OVERVIEW: Compound was evaluated for IP toxicity at concentration that reduces cellular growth
- MEASUREMENT CONTEXT: human
ASSAY METRIC: CC50

Solved cases (2 shown):
>  <COMPOUND>
CCn1c2ccccc2c2cc(C3(C4COC(=O)C4)SCCCS3)ccc21 (stereo not drawn)

>  <CC50>
> 50 µM

$$$$
>  <COMPOUND>
CCn1c2ccccc2c2cc(C3(C4COC(=O)[C@@H]4C(O)c4cc(OC)c(OC)c(OC)c4)SCCCS3)ccc21 (stereo partly drawn)

>  <CC50>
> 50 µM

$$$$

Continue with the compound presented below.
Enquiry: // returns reported CC50 for input "COc1cc2c(c(OC)c1OC)[C@]13C(=O)OC[C@H]1[C@@H](C)c1cccc4cccc(c14)[C@@H]23"
Return: > 50 µM

---

- Test system: Human immunodeficiency virus 1
- ASSAY OVERVIEW: Compound was evaluated for anti-Tat activity in the HeLa-TAT-Luc cell assay against human immunodeficiency virus at 50 uM concentration (Untreated cells)
- Format: functional
Label T when inhibition at 50 µM is at or above 20%; anything below gets F.

Answered examples (9):
>  <COMPOUND>
COc1cc([C@@H]2c3cccc4cccc(c34)C3(SCCCS3)[C@@H]3COC(=O)[C@@H]23)cc(OC)c1OC

>  <ASSIGNED LABEL>
F

$$$$
>  <COMPOUND>
O=C1CC(C2(c3cccc4ccccc34)SCCCS2)CO1 (stereo unspecified)

>  <ASSIGNED LABEL>
F

$$$$
>  <COMPOUND>
COc1cc([C@H]2c3c(ccc4ccccc34)C3(SCCCS3)[C@H]3COC(=O)[C@H]23)cc(OC)c1OC

>  <ASSIGNED LABEL>
F

$$$$
>  <COMPOUND>
COc1cc2c(c(OC)c1OC)[C@]13C(=O)OC[C@H]1[C@@H](C)c1cccc4cccc(c14)[C@@H]23

>  <ASSIGNED LABEL>
F

$$$$
>  <COMPOUND>
COc1cc([C@@H]2c3cccc4cccc(c34)C3(SCCCS3)[C@H](CO)[C@@H]2CO)cc(OC)c1OC

>  <ASSIGNED LABEL>
F

$$$$
>  <COMPOUND>
COc1cc(C(O)[C@H]2C(=O)OCC2C2(c3ccc4ccccc4c3)SCCCS2)cc(OC)c1OC (stereo partly specified)

>  <ASSIGNED LABEL>
T

$$$$
>  <COMPOUND>
COC(=O)[C@H]1[C@H](c2cc(OC)c(OC)c(OC)c2)c2c(ccc3ccccc23)C(=O)[C@]12CCN=N2

>  <ASSIGNED LABEL>
T

$$$$
>  <COMPOUND>
COc1cc(C(O)[C@@H]2C(=O)OCC2C(=O)c2cccc3ccccc23)cc(OC)c1OC (stereo partly specified)

>  <ASSIGNED LABEL>
F

$$$$
>  <COMPOUND>
COc1cc([C@@H]2c3c(ccc4ccccc34)C(=O)[C@H]3COC(=O)[C@@H]23)cc(OC)c1OC

>  <ASSIGNED LABEL>
T

$$$$

Here is another compound to look at.
Enquiry: Determine whether this compound has inhibition at 50 µM no lower than 20%: CCn1c2ccccc2c2cc(C3(C4COC(=O)C4)SCCCS3)ccc21 (stereo unspecified)
Return: T

---

- Test system: Human immunodeficiency virus 1
- ASSAY OVERVIEW: Compound was evaluated for the inhibition of HIV-1 LTR by TNF-alpha-induced NF-kB assay at 25 uM concentration (TNF-alpha-treated cells)
- Format: functional
ASSAY METRIC: inhibition at 25 µM
Report the figure along with its unit, number first.

>  <COMPOUND>
COc1cc2c(c(OC)c1OC)[C@]13C(=O)OC[C@H]1[C@@H](C)c1cccc4cccc(c14)[C@@H]23

>  <inhibition at 25 µM>
73.6%

$$$$

Enquiry: Consider the compound shown here: COc1cc(C(O)[C@@H]2C(=O)OCC2C(=O)c2cccc3ccccc23)cc(OC)c1OC (stereo partly drawn) What is its recorded inhibition at 25 µM?
Return: 37.5%

Enquiry: Which measured inhibition at 25 µM value corresponds to "COc1cc([C@H]2c3c(ccc4ccccc34)C3(SCCCS3)[C@H]3COC(=O)[C@H]23)cc(OC)c1OC" ?
Return: 17.6%

Enquiry: Value lookup for inhibition at 25 µM; key = "COc1cc([C@@H]2c3cccc4cccc(c34)C3(SCCCS3)[C@H](CO)[C@@H]2CO)cc(OC)c1OC"
Return: 43.5%

Enquiry: GET /values?readout=inhibition at 25 µM&item= COc1cc(C2C(=O)OCC2C(=O)c2cccc3ccccc23)cc(OC)c1OC (stereo not drawn)
Return: 1.5%

Enquiry: What does the record list as inhibition at 25 µM for "C=C1C(=O)c2ccc3ccccc3c2[C@@H](c2cc(OC)c(OC)c(OC)c2)[C@@H]1C(=O)OC" ?
Return: 96.7%

Enquiry: What measured inhibition at 25 µM goes with COc1cc(C(O)[C@H]2C(=O)OCC2C2(c3ccc4ccccc4c3)SCCCS2)cc(OC)c1OC (stereo partly drawn) ?
Return: 77%

Enquiry: Which inhibition at 25 µM value is on record for CCn1c2ccccc2c2cc(C3(C4COC(=O)[C@@H]4C(O)c4cc(OC)c(OC)c(OC)c4)SCCCS3)ccc21 (stereo partly drawn) ?
Return: 38.5%

Enquiry: Requested field: inhibition at 25 µM. Item: O=C1CC(C2(c3cccc4ccccc34)SCCCS2)CO1 (stereo not drawn)
Return: 3%

Enquiry: Look up inhibition at 25 µM for this compound: "COc1cc([C@@H]2c3c(ccc4ccccc34)C(=O)[C@H]3COC(=O)[C@@H]23)cc(OC)c1OC"
Return: 32.9%

Enquiry: Which inhibition at 25 µM value is on record for CCn1c2ccccc2c2cc(C3(C4COC(=O)C4)SCCCS3)ccc21 (stereo not drawn) ?
Return: -7.1%

Enquiry: Quick check: inhibition at 25 µM of "COC(=O)[C@H]1[C@H](c2cc(OC)c(OC)c(OC)c2)c2c(ccc3ccccc23)C(=O)[C@]12CCN=N2" ?
Return: 32.9%

Enquiry: May I ask what inhibition at 25 µM has been recorded for "COc1cc([C@@H]2c3cccc4cccc(c34)C3(SCCCS3)[C@@H]3COC(=O)[C@@H]23)cc(OC)c1OC" ?
Return: 21.8%

---

# key: entry, value: Cell death
- ASSAY OVERVIEW: Compound was evaluated for toxicity in necrosis using MT2 assay at 50 uM concentration at 24 hr
- MEASUREMENT CONTEXT: human
# output: bare number, implied unit %

Below are worked cases with known answers.
>  <COMPOUND>
C=C1C(=O)c2ccc3ccccc3c2[C@@H](c2cc(OC)c(OC)c(OC)c2)[C@@H]1C(=O)OC

>  <ASSAY METRIC>
Cell death

>  <READOUT NUMBER>
98

$$$$
>  <COMPOUND>
COc1cc(C(O)[C@@H]2C(=O)OCC2C(=O)c2cccc3ccccc23)cc(OC)c1OC (some centres undefined)

>  <ASSAY METRIC>
Cell death

>  <READOUT NUMBER>
45.7

$$$$

Now let's try a different one.
Enquiry: Bench note: what Cell death did COc1cc(C2C(=O)OCC2C(=O)c2cccc3ccccc23)cc(OC)c1OC (centres undefined) show?
Return: 7.6
